# Read-out: growth arrest and DNA damage 45 (GADD45G), GADD45G (gene 10912)
# assay overview: LTEA_HepaRG_GADD45G: Life Technologies and Expression Analysis (LTEA) Assay for growth arrest and DNA damage 45 (GADD45G) using HepaRG (AID 2283499)
# condition info: mRNA level, 48 h; actives raise or lower the signal
Activity calls are given as the source filed them. How the source made its calls: active means hit-call score of the fitted dose curve at least 0.9, where 1 is the maximum; inactive means score below 0.9.
Possible outcomes: active, inactive

{"compound": "Cc1ccc(C(C)(C)C)c(O)c1", "qualitative label": "inactive"}
{"compound": "O=Cc1ccccc1C=O", "qualitative label": "inactive"}
{"compound": "CCCCCCCC(=O)OC", "qualitative label": "inactive"}
{"compound": "COc1ccc(C(=O)Nc2nc3ccccc3c(NCc3ccccc3)c2C#N)cc1", "qualitative label": "active"}
{"compound": "CN(C)C(=O)NC1(c2ccccc2)CCN(CC[C@@]2(c3ccc(F)c(F)c3)CN(C(=O)c3ccccc3)CCO2)CC1", "qualitative label": "active"}
{"compound": "Cc1ccc(-c2cc(C(F)(F)F)nn2-c2ccc(S(N)(=O)=O)cc2)cc1", "qualitative label": "active"}
{"compound": "Nc1nc(Cl)nc2c1ncn2[C@H]1C[C@H](O)[C@@H](CO)O1", "qualitative label": "active"}
{"compound": "CC(=O)[C@@]1(O)CC[C@H]2[C@@H]3CCC4=CC(=O)CC[C@]4(C)[C@H]3CC[C@@]21C", "qualitative label": "inactive"}
{"compound": "C=CCc1ccc(OC)c(OC)c1", "qualitative label": "inactive"}
{"compound": "CC(C)c1cccc(C(C)C)c1NC(=O)NS(=O)(=O)c1cc(C(C)(C)O)co1", "qualitative label": "inactive"}
{"compound": "C=CCCCCCCCCCCCC", "qualitative label": "inactive"}
{"compound": "CCCCCCCCCCCCCCOS(=O)(=O)O", "qualitative label": "inactive"}
{"compound": "CCCCC(CC)COC(=O)CCCCCCCC(=O)OCC(CC)CCCC (stereo unspecified)", "qualitative label": "inactive"}
{"compound": "OCC(O)CO", "qualitative label": "inactive"}
{"compound": "CC(C)(C)c1ccccc1", "qualitative label": "inactive"}
{"compound": "O=C(NS(=O)(=O)/C=C/c1cccs1)c1ccc(F)cc1Br", "qualitative label": "inactive"}
